assayName: Plasma levels of Compound 1 over 72 h, suspension versus tablet, fasted or fed, in healthy volunteers
Type: in vivo
conditionDescription: human, oral, 100 mg, 100 mg suspension, fasted, 36 h post-dose, read-out: Plasma level, Mean
Method: FIG. 4 is a graph of the pharmacokinetics of Compound 1 over 72 hours in healthy volunteers in fed or fasted states when administering 100 mg of the compound as a suspension formulation or a tablet. A suspension formulation (100 mg, fasted) and tablet formulation (100 mg, fasted or fed) of Compound 1 was administered to healthy volunteers. Plasma levels of Compound 1 over 72 was measured (FIG. 4). Post-dose plasma levels are recited in Table 16.
parameter: concentration at 36 h (ng/mL)
The figure you give is taken to be in ng/mL; do not add the unit.

Give concentration at 36 h for the following molecule: NC(=O)N1CCC[C@@H](N(C(=O)NCc2ccc(OC(F)(F)F)cc2F)C2CC2)C1 50

Source: patent US20260083714A1
